Assay Remarks: Determination of pharmacokinetic parameters following intravenous and oral administration (rats)
Type: in vivo, male Wistar rats
Test Conditions: intravenous administration in rats
CLblood: recorded values

Compound | Unit | CLblood
CCC(C)(N)CNC(=O)c1c(C)nc2c(OCc3c(F)ccc(F)c3F)cc(C)cn12 (single isomer, unassigned; enantiomer b) [Example 275] | mL/min/kg | 20.8
CCC(C)(N)CNC(=O)c1c(C)nc2c(OCc3c(F)cccc3F)cc(OC)cn12 (single isomer, unassigned; enantiomer a) [Example 279] | mL/min/kg | 46
Cc1cc(OCc2c(F)cccc2F)c2nc(C)c(C(=O)NC[C@H]3CCCCN3)n2c1 [Example 173] | mL/min/kg | 28

---

Assayed Target: recombinant guanylate cyclase reporter cell line (Rattus norvegicus, UniProt P19686+P20595)
Construct: expressed in transfected cells; host or cells: recombinant reporter cell line
Sequence (P19686 whole entry): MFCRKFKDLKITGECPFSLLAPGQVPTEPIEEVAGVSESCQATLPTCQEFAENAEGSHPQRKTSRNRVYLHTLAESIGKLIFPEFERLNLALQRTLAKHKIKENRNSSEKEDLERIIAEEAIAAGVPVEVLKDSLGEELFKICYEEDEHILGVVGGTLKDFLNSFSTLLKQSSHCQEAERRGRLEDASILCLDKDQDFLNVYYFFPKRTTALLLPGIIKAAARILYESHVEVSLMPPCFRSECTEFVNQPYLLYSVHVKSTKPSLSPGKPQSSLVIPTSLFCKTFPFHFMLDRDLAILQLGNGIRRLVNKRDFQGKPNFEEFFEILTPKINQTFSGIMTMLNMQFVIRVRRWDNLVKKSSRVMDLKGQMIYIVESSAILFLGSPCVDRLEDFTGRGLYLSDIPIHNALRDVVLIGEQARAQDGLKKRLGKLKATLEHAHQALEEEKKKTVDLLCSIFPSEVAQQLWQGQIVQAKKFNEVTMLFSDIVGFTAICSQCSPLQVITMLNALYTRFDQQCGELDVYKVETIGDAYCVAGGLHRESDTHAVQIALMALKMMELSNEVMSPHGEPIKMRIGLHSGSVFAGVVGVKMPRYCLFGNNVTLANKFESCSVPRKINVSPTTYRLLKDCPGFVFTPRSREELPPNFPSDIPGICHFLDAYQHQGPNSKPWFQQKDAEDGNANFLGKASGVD
Sequence (P20595 whole entry): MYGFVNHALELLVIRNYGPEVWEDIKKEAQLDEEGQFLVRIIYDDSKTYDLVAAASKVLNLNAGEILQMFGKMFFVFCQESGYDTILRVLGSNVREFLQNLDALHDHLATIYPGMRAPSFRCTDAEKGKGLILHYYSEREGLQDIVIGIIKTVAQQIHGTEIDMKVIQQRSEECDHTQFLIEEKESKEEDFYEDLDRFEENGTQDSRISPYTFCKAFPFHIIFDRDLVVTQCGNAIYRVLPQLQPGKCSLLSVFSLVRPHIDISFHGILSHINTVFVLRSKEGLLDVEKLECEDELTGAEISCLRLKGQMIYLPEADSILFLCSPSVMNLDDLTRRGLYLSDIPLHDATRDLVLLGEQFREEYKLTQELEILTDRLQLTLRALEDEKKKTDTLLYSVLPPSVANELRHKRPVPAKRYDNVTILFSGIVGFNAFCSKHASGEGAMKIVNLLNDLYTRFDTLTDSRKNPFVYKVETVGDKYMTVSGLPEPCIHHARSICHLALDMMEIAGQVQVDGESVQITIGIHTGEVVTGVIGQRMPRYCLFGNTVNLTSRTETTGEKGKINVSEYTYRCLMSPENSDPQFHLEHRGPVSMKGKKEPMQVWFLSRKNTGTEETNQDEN
Assay Remarks: Action on recombinant guanylate cyclase reporter cell line
Type: cell-based
Test Conditions: in some cases mean values from individual determinations

Molecule | MEC (minimal effective concentration) [µM]
Cc1cc(OCc2c(F)cccc2F)c2nc(C)c(C(=O)NCC(C)(C)NCCO)n2c1 | 1.00
CCCC(C)(N)CNC(=O)c1c(C)nc2c(OCc3c(F)cccc3F)cc(OC)cn12 (single isomer, unassigned; enantiomer b) | 0.3
CCCC[C@H](CN1CCOCC1)NC(=O)c1c(C)nc2c(OCc3c(F)cccc3F)cccn12 | 0.30
Cc1nc2c(OCc3c(F)cccc3F)cc(Cl)cn2c1C(=O)NCC(C)(N)CC(C)C (racemic) [Example 225] | 0.30

---

Assay Remarks: Determination of pharmacokinetic parameters following intravenous and oral administration (rats)
Format: in vivo, male Wistar rats
Test Conditions: male, Wistar, rat, plasma, iv, intravenous administration in rats
Procedure: B-6. Determination of Pharmacokinetic Parameters Following Intravenous and Oral Administration The pharmacokinetic parameters of the compounds according to the invention are determined in male CD-1 mice, male Wistar rats and female beagles. […] Since the substance quantification is carried out in plasma, it is necessary to determine the blood/plasma distribution of the substance in order to be able to adjust the pharmacokinetic parameters correspondingly. […]
Structures can show the parent of a compound that is named as a salt.
Catalogue of half-life values

Compound | Unit | half-life
Cc1cc(OCc2c(F)ccc(F)c2F)c2nc(C)c(C(=O)NCC(C)(N)CCC(F)(F)F)n2c1 (single isomer, unassigned) | h | 4.3
Cc1cc(OCc2c(F)cccc2F)c2nc(C)c(C(=O)NCC(C)(N)CF)n2c1 (single isomer, unassigned; enantiomer a) [Example 283] | h | 3.1
Cc1cc(OCc2c(F)cccc2F)c2nc(C)c(C(=O)NCC3(N)CCCCC3)n2c1 | h | 6.9
Cc1nc2c(OCc3c(F)cccc3F)cccn2c1C(=O)NC(CN)CCCC(F)(F)F (racemic) | h | 5.2
Cc1cc(OCc2c(F)ccc(F)c2F)c2nc(C)c(C(=O)NCC(C)(C)N)n2c1 | h | 2.9
Cc1nc2c(OCc3c(F)cccc3F)cc(Cl)cn2c1C(=O)NCC1(N)CCC1 [Example 155, trifluoroacetate] | h | 7.7
Cc1nc2c(OCc3c(F)cccc3F)cc(Cl)cn2c1C(=O)NCC(C)(C)N | h | 8.6

---

Assayed Target: recombinant guanylate cyclase reporter cell line (Rattus norvegicus, UniProt P19686+P20595)
Construct: expressed in transfected cells; host or cells: recombinant reporter cell line
Assay Remarks: Action on recombinant guanylate cyclase reporter cell line
Type: cell-based
Test Conditions: in some cases mean values from individual determinations
Counter-ions that a name gives are not always drawn.

Molecule | MEC (minimal effective concentration)
Cc1cc(OCc2c(F)cccc2F)c2nc(C)c(C(=O)NCC(N)c3cccc(OC(F)F)c3)n2c1 (racemic) | 3.00 µM
Cc1cc(OCc2c(F)cccc2F)c2nc(C)c(C(=O)NC34CCC3CNC4)n2c1 (racemic) | 1.00 µM
Cc1nc2c(OCc3c(F)cccc3F)cc(Cl)cn2c1C(=O)NCC(C)N (single isomer, unassigned) [Example 29] | 0.20 µM
Cc1nc2c(OCc3c(F)cccc3F)cccn2c1C(=O)NC(C)[C@@H](C)N (stereo partly drawn) [Example 121] | 0.30 µM
Cc1cc(OCc2c(F)cccc2F)c2nc(C)c(C(=O)NC34CC5CC(CC(N)(C5)C3)C4)n2c1 [Example 365, Formate] | 1.00 µM
[2H]C([2H])(Oc1cccn2c(C(=O)NC(CN)c3ccc(F)c(F)c3)c(C)nc12)c1c(F)cccc1F (stereo not drawn) | 0.10 µM
Cc1nc2c(OCc3c(F)cccc3F)cccn2c1C(=O)NCC(C)N1CCOCC1 (single isomer, unassigned; ent-8) [Example 180] | 1.00 µM
CCCC[C@H](CN(C)C)NC(=O)c1c(C)nc2c(OCc3c(F)cccc3F)cccn12 | 0.30 µM
Cc1cc(OCc2c(F)cccc2F)c2nc(C)c(C(=O)NCCN3CC(N4CCCC4)C3)n2c1 | 3.00 µM
Cc1nc2c(OCc3c(F)cccc3F)cccn2c1C(=O)NCC(C)(C)CN | 3.00 µM
CCCc1nc2c(OCc3c(F)cccc3F)cc(C)cn2c1C(=O)NCC(C)(N)CC (stereo not drawn) | 1.00 µM
CCCC(C)(N)CNC(=O)c1c(C)nc2c(OCc3c(F)ccc(F)c3F)cc(C)cn12 (single isomer, unassigned) [Example 295] | 0.10 µM
COC(=O)[C@@H](N)CNC(=O)c1c(C)nc2c(OCc3c(F)cccc3F)cc(C)cn12 | 0.30 µM
CCCC(C)(N)CNC(=O)c1c(C(F)(F)F)nc2c(OCc3c(F)cccc3F)cc(C)cn12 (stereo not drawn) | 0.10 µM
Cc1nc2c(OCc3c(F)cccc3F)cccn2c1C(=O)NC(CN1CCOCC1)c1ccccc1 (single isomer, unassigned; ent-8) [Example 182] | 3.00 µM

---

Form field: CLblood (one value per entry).
Assay Remarks: Determination of pharmacokinetic parameters following intravenous and oral administration (rats)
Assay type: in vivo, male Wistar rats
Test Conditions: intravenous administration in rats
Counter-ions that a name gives are not always drawn.
Reported Property: CLblood (mL/min/kg)

Compound | Unit | Measurement
Cc1cc(OCc2c(F)ccc(F)c2F)c2nc(C)c(C(=O)NCC(C)(N)CF)n2c1 (single isomer, unassigned; enantiomer b) [Example 286] | mL/min/kg | 23.2
CCC(C)(N)CNC(=O)c1c(C)nc2c(OCc3c(F)ccc(F)c3F)cc(C)cn12 (single isomer, unassigned; enantiomer a) [Example 274] | mL/min/kg | 11.5
CCCC(C)(N)CNC(=O)c1c(C)nc2c(OCc3c(F)ccc(F)c3F)cc(C)cn12 (single isomer, unassigned) [Example 295] | mL/min/kg | 20.5
Cc1cc(OCc2c(F)cccc2F)c2nc(C)c(C(=O)NCC(N)C(C)C)n2c1 (single isomer, unassigned) [Example 223] | mL/min/kg | 18.2
CCC(C)(N)CNC(=O)c1c(C)nc2c(OCc3c(F)cccc3F)cc(C(F)F)cn12 (single isomer, unassigned; enantiomer a) [Example 287] | mL/min/kg | 29.3
Cc1nc2c(OCc3c(F)cccc3F)cc(Cl)cn2c1C(=O)NCC(N)C(C)C (single isomer, unassigned) [Example 211] | mL/min/kg | 17.8
Cc1nc2c(OCc3c(F)cccc3F)cc(Cl)cn2c1C(=O)NCC(C)(C)N [Example 73] | mL/min/kg | 8.5
Cc1nc2c(OCc3c(F)cccc3F)cc(Cl)cn2c1C(=O)NCC1(N)CCC1 [Example 155, trifluoroacetate] | mL/min/kg | 21.2
Cc1cc(OCc2c(F)cccc2F)c2nc(C)c(C(=O)NCC(C)(N)CCC(F)(F)F)n2c1 (single isomer, unassigned) [Example 409] | mL/min/kg | 35.8
CCCC(C)(N)CNC(=O)c1c(C)nc2c(OCc3c(F)cccc3F)cc(C(F)F)cn12 (single isomer, unassigned; enantiomer b) [Example 289] | mL/min/kg | 41.8
Cc1cc(OCc2c(F)cccc2F)c2nc(C)c(C(=O)NCC(C)(N)CF)n2c1 (single isomer, unassigned; enantiomer a) [Example 283] | mL/min/kg | 14.5
Cc1cc(OCc2c(F)cccc2F)c2nc(C)c(C(=O)NCC(C)(N)CF)n2c1 (single isomer, unassigned; enantiomer b) [Example 284] | mL/min/kg | 16.2
Cc1cc(OCc2c(F)cccc2F)c2nc(C)c(C(=O)NCC3(N)CCCCC3)n2c1 [Example 307] | mL/min/kg | 29.7
Cc1nc2c(OCc3c(F)cccc3F)cccn2c1C(=O)NC(CN)c1ccc(F)cc1 (single isomer, unassigned; enantiomer b) [Example 10] | mL/min/kg | 12.3
CCCC(C)(N)CNC(=O)c1c(C)nc2c(OCc3c(F)ccc(F)c3F)cc(C)cn12 (single isomer, unassigned) [Example 304] | mL/min/kg | 37.8
Cc1cc(OCc2c(F)ccc(F)c2F)c2nc(C)c(C(=O)NCC(C)(N)CF)n2c1 (single isomer, unassigned; enantiomer a) [Example 285] | mL/min/kg | 17
